ASSAY TARGET: VIM-2 (Escherichia coli, UniProt Q5U7L7)
Construct: made in house; host or cells: E. coli BL21(DE3)
TEST METHOD NOTES: β-Lactamase enzyme inhibition assay, VIM-2 (nitrocefin substrate)
Format: biochemical
PARTICULARS: nitrocefin substrate 100 μM, 15 min preincubation at 37° C.; read-out: IC50, Class B VIM-2
This section presents compounds with their documented IC50 values.

# example entries with known answers
Exercise: Could you share what IC50 was measured for O=C(N[C@H]1Cc2cccc(C(=O)O)c2OB1O)c1cnc2[nH]ccc2c1 [Example 35] , tested on VIM-2 (Escherichia coli, UniProt Q5U7L7)?
Key: 100 to 1000 nM

Exercise: Param readout= IC50; system= VIM-2 (Escherichia coli, UniProt Q5U7L7); entry= Cc1ccc(C(=O)N[C@H]2Cc3cccc(C(=O)O)c3OB2O)cc1NC(=O)[C@@H](N)CN [Example 22] ; returns value.
Key: 100 to 1000 nM

Exercise: Lab note: need IC50 with VIM-2 (Escherichia coli, UniProt Q5U7L7) for entry CN(C)Cc1ccc(C(=O)N[C@H]2Cc3cccc(C(=O)O)c3OB2O)cc1N [Example 18] , please look it up.
Key: 100 to 1000 nM

Exercise: Entry O=C(N[C@H]1Cc2cccc(C(=O)O)c2OB1O)c1ccc2c(c1)CCNC2 [Example 5] , system VIM-2 (Escherichia coli, UniProt Q5U7L7): what IC50 was measured?
Key: 100 to 1000 nM

Exercise: What reported IC50 corresponds to O=C(Cc1ccc2c(c1)CNCC2)N[C@H]1Cc2cccc(C(=O)O)c2OB1O [Example 51] on VIM-2 (Escherichia coli, UniProt Q5U7L7)?
Key: < 100 nM

Next, consider the following compound.
Exercise: Record lookup: for VIM-2 (Escherichia coli, UniProt Q5U7L7), what IC50 belongs to Cc1ccc(C(=O)N[C@H]2Cc3cccc(C(=O)O)c3OB2O)cc1N [Example 23] ?
Key: 100 to 1000 nM
